- test target: T1, CAPRIN-1 protein expressed on the membrane surface of human cancer cells (human, UniProt Q14444 2-709)
- T1 sequence (looked up): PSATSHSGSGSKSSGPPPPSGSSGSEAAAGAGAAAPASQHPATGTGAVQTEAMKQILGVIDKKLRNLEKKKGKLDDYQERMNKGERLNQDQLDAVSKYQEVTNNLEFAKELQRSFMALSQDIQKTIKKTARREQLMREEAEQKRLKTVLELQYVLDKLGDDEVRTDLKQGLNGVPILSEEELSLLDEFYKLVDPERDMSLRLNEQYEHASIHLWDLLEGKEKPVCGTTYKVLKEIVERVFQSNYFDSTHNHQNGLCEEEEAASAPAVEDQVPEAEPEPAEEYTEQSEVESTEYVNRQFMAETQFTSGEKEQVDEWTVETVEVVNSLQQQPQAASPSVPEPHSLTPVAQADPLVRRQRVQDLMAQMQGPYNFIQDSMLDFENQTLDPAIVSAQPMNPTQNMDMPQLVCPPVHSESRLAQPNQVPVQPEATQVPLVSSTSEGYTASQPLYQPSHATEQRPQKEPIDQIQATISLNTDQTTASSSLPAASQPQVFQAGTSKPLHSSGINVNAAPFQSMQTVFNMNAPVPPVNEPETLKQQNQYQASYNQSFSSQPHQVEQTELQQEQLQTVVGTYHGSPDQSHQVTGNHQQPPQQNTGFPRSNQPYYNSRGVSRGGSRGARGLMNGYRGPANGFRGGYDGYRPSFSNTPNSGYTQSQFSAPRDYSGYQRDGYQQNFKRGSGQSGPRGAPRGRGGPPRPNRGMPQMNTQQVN
- assay info: cell-based or functional assay
Consider the following binders; for each one, report its ADCC cytotoxic activity (51Cr release) on G-361.

humanized antibody #6 (antibody, V domains shown) VH: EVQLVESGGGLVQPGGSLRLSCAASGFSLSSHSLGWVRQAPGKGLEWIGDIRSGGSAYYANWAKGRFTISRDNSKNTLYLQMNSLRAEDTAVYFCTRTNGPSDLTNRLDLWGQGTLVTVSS VL: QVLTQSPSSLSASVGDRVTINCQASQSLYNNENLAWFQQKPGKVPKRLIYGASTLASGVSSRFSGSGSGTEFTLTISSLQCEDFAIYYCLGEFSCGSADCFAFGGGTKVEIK; ≥ 25%
humanized antibody #5 (antibody, V domains shown) VH: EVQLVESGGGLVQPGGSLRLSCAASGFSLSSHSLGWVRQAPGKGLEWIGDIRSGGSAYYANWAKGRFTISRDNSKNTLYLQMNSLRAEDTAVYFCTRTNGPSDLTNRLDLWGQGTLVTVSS VL: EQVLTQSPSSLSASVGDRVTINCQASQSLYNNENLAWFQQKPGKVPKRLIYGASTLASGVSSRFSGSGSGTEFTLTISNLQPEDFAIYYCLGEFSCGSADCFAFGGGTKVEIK; ≥ 21%
humanized antibody #2 (antibody, V domains shown) VH: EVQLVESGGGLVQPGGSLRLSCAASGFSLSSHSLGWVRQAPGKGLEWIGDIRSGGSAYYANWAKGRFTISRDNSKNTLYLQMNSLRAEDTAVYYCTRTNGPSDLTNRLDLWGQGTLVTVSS VL: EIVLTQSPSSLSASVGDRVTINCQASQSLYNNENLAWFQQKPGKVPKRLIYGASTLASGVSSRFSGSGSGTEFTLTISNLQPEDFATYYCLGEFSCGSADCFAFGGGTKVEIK; ≥ 21%

Hello, I would appreciate it if you could give ADCC cytotoxic activity (51Cr release) on G-361 for each entry below.
1. humanized antibody #8 (antibody, V domains shown) VH: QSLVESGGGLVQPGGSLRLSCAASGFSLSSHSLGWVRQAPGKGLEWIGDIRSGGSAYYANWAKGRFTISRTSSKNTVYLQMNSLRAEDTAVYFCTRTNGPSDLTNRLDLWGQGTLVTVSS VL: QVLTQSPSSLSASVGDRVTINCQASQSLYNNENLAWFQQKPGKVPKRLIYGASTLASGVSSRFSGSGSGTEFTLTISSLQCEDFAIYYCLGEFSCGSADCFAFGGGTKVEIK
2. humanized antibody #10 (antibody, V domains shown) VH: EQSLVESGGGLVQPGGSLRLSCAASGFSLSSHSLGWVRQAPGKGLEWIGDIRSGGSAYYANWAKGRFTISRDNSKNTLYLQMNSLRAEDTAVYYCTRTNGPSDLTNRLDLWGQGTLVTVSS VL: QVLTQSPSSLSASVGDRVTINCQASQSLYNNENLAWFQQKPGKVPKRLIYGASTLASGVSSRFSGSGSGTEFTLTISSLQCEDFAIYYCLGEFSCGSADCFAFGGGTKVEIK

## Output
["≥ 15%", "≥ 25%"]
